# measurement.protocol: Oral bioavailability in cynomolgus monkey at 1 mg/kg administered as single dose by LC-MS/MS analysis
# Format: ADME, organism-based, Macaca fascicularis
# condition.label: in vivo
quantity.name: bioavailability (%)
Please respond with the number in % and leave the unit unwritten.

response.value for `O=C(CC12CCC(C(=O)O)(CC1)C2)N1CCc2c(n(Cc3ccc(F)cc3)c3ncccc23)C1` (field: bioavailability) = 30.8

====

# measurement.protocol: Volume of distribution at steady state in Beagle dog at 0.3 mg/kg, iv administered as single dose by LC-MS/MS analysis
# Type: ADME, organism-based, Canis lupus familiaris
# condition.label: in vivo, read-out: Vdss
quantity.name: Vd (L/kg)
Give a bare numeral; the unit L/kg is implied.

Measured Vd, `O=C(CC12CCC(C(=O)O)(CC1)C2)N1CCc2c(n(Cc3ccc(F)cc3)c3ncccc23)C1` : 1.86

Cited source: ChEMBL document CHEMBL4616716
